Target: the molecule itself
Experiment: native mass spectrometry; monomer-dimer equilibrium of the hinge-less CH2-CH3 fragment (homodimer)
Experimental: To measure the effect of the above mentioned CH3 mutations on the strength of the CH3-CH3 interaction, fragments composed of only the CH2-CH3 domains were made. The lack of a hinge region in these fragments prevented covalent inter-heavy chain disulfide bonds. The fragments were analyzed by native mass spectrometry. Samples were buffer-exchanged to 100 mM ammonium acetate pH 7, using 10 kDa MWCO spin-filter columns. […]
quantity_kind: Kd (µM)
The response must be a number in µM with no trailing unit.

The protein identified as CH2-CH3 fragment of human IgG4 with R409T (other, UniProt P01861-1 221-327, looked up, name in EU numbering, range 341-447; As m7, with the mutation; also called G4-R409T; not shown: N-terminal 6 amino acid His tag) GQPREPQVYTLPPSQEEMTKNQVSLTCLVKGFYPSDIAVEWESNGQPENNYKTTPPVLDSDGSFFLYSTLTVDKSRWQEGNVFSCSVMHEALHNHYTQKSLSLSLGK registered its Kd at 0.72

Sample CH2-CH3 fragment of human IgG4 with R409W (other, UniProt P01861-1 221-327, looked up, name in EU numbering, range 341-447; As m7, with the mutation; also called G4-R409W; not shown: N-terminal 6 amino acid His tag) GQPREPQVYTLPPSQEEMTKNQVSLTCLVKGFYPSDIAVEWESNGQPENNYKTTPPVLDSDGSFFLYSWLTVDKSRWQEGNVFSCSVMHEALHNHYTQKSLSLSLGK ; Kd observed: 34
